Assay: physchem
Conditions: 37 °C, pH 1.2, simulated gastric fluid, thermodynamic from solid, Solubility JP1 (pH 1.2), 2 hr
Can you tell me solubility for the items I'm about to list?
One number for each entry, in µg/mL.

The examples below pair each entry with its known result.
CN1CC(=O)N2[C@@H](Cc3ccc(OP(=O)(O)O)cc3)C(=O)N(Cc3cccc4cnn(C)c34)C[C@@H]2N1C(=O)NCc1ccccc1 [Compound 5]
532
CN(C)c1cc(CN2C[C@H]3N(C(=O)CN(C)N3C(=O)NCc3ccccc3)[C@@H](Cc3ccc(OP(=O)([O-])[O-])cc3)C2=O)ccc1Cl.[Na+].[Na+] [Compound 11]
2000

The following compounds each have a reported value; give each one's solubility.
1. CN(C)c1cc(F)ccc1CN1C[C@H]2N(C(=O)CN(C)N2C(=O)NCc2ccccc2)[C@@H](Cc2ccc(OP(=O)(O)O)cc2)C1=O [Compound 3]
2. C=CCN1CC(=O)N2[C@@H](Cc3ccc(OP(=O)([O-])[O-])cc3)C(=O)N(Cc3cccc4cccnc34)C[C@@H]2N1C(=O)NCc1ccccc1.[Na+].[Na+] [Compound 6]
3. C=CCN1CC(=O)N2[C@@H](Cc3ccc(OP(=O)([O-])[O-])cc3)C(=O)N(Cc3ccc(Cl)c4cccnc34)C[C@@H]2N1C(=O)NCc1ccccc1.[Na+].[Na+] [Compound 7]
4. CN1CC(=O)N2[C@@H](Cc3ccc(OP(=O)([O-])[O-])cc3)C(=O)N(Cc3ccc(F)cc3F)C[C@@H]2N1C(=O)NCc1ccccc1.[Na+].[Na+] [Compound 4]

*A*
1970
1720
446
646
